test: inhibitors of Toxoplasma growth in IFN-γ-primed HeLa – cell-based, ME49Luc, luciferase, 72 h, dose response (AID 1259418); conditions: T. gondii ME49Luc in IFN-y HeLa, hits give low values, -100% = high-dose IFN-γ control wells; at 19.5 µM unless noted
The campaign covered roughly 3,400 compounds. About 840 (25%) were called active. Another 11% or so got no clear call; they are omitted. A selection follows. Results with a measured potency or affinity are listed apart.
# maps each entry to its max activity

Solved cases below.
>>> assay_result("Cc1nc(OCC(=O)NCc2ccc(F)cc2)c2ccccc2n1")
"25% [at 10 µM] (inactive)"
>>> assay_result("Cc1nc(N2CCOCC2)nc2c1CCN(C(=O)C1CC1)CC2")
"58.7% (inactive)"

Q: Quick check: max activity of COc1ccc(-c2nc(CSc3nc4c(c(=O)[nH]3)CN(Cc3ccccc3)CC4)c(C)o2)cc1 ?
Result: 9.43% [at 1.35 µM] (inactive)

Q: Quick check: max activity of O=C(CCC1Nc2c3ccccc3nc(=S)n2C1=O)N1CCN(c2ccccc2F)CC1 (configuration not stated) ?
Result: 35.9% (inactive)

Q: Quick check: max activity of Fc1cccc(CSc2nc(Nc3ccc4c(c3)OCO4)c3ccccc3n2)c1 ?
Result: 11.5% (inactive)

Q: Quick check: max activity of CCCCC(=O)Nc1ccc(-c2nc(-c3cc(C)ccc3C)co2)cc1 ?
Result: -7.17% [at 5 µM] (inactive)

Q: Quick check: max activity of CCCC(=O)Nc1ccc(-c2nc(-c3ccc(C)cc3C)co2)cc1 ?
Result: -18.1% [at 1.35 µM] (inactive)

Q: Quick check: max activity of COCCCNc1ncnc2c1cnn2-c1ccc(C)cc1C ?
Result: 11.9% [at 0.16 µM] (inactive)

Q: Quick check: max activity of Cc1cnc(N2C[C@@H](c3ccccc3)[C@@]3(CCNC3=O)C2)nc1 ?
Result: 22.8% (inactive)

Q: Quick check: max activity of Cc1ccc(Nc2ncnc3c2cnn3-c2ccc(C)cc2C)cc1 ?
Result: 16.5% [at 1.35 µM] (inactive)

Q: Quick check: max activity of Brc1ccc(Nc2c3ccccc3nc3ccccc23)cc1 ?
Result: 36.4% [at 5 µM] (inactive)

Q: Quick check: max activity of Cc1ccc(-n2ncc3c(NC(C)(C)C)ncnc32)c(C)c1 ?
Result: 53.9% (inactive)

Q: Quick check: max activity of COc1cc(C(=O)N2CCC3(CC2)Nc2cc(F)ccc2-n2cccc23)cc(OC)c1OC ?
Result: 5.03% [at 0.68 µM] (inactive)
